Sourced from patent US8242118B2

The entries below come with measured melting point values attached.

                                   compound  assay_endpoint            val
0  O=[N+]([O-])c1ccc(Oc2ccc(Cl)c(Cl)c2)c(S(=O)(=O)N2CCNCC2)c1   melting point  167 to 168 °C
1  O=C(O)C1CNCCN1S(=O)(=O)c1cc([N+](=O)[O-])ccc1Oc1cc(Cl)cc(Cl)c1 (stereo not shown)   melting point  240 to 241 °C
2  CCC(CC)N1CCN(S(=O)(=O)c2cc([N+](=O)[O-])ccc2Oc2cc(C)cc(C)c2)CC1   melting point  131 to 132 °C

Now for a further compound.
Fill in: melting point of "CN1CCC(N2CCN(S(=O)(=O)c3cc([N+](=O)[O-])ccc3Oc3cc(Cl)cc(Cl)c3)CC2)CC1" is ___
167 to 169 °C

----------
As shown below, each of these compounds has a reported IC50 value.
test-target: Human CCR3 (Homo sapiens, UniProt P51677)
Construct: The cloned CCR3 cDNA was constructed with pcDNA3 vector and transfected into a IC562 cell line; expressed in transfected cells
Sequence (P51677 whole entry): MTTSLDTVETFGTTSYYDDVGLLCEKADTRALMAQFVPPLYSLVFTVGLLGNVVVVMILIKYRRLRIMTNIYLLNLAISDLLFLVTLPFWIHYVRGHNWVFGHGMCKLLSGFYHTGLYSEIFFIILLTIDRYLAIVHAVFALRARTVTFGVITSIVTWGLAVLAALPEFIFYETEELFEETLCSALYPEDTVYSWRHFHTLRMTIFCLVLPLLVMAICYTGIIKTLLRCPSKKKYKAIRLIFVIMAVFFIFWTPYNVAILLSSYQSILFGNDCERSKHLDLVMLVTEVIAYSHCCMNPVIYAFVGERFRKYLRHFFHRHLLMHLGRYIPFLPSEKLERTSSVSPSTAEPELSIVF
assay-remarks: Receptor binding assay (RBA), [125I]-eotaxin
cond: human CCR3-transformed K562 cells, 0.1 nM [125I]-eotaxin; compounds of about 40 to 90% purity; read-out: Activity grade RBA (IC50 class)

Please review the following examples before continuing.
                                   compound                               test_target  assay_endpoint               val
0  CCN1CCN(S(=O)(=O)c2cc(Cl)ccc2Oc2cc(C)cc(C)c2)CC1 [Example 5-4]  Human CCR3 (Homo sapiens, UniProt P51677)            IC50         < 1000 nM
1  Cc1cc(C)cc(Oc2ccc([N+](=O)[O-])cc2S(=O)(=O)NCCN2CCOCC2)c1 [Example 4-3]  Human CCR3 (Homo sapiens, UniProt P51677)            IC50  1000 to 10000 nM
2  Cl.Cl.Cl.Nc1ccc(Oc2ccc([N+](=O)[O-])cc2S(=O)(=O)N2CCNCC2)cc1 [Example 1-13]  Human CCR3 (Homo sapiens, UniProt P51677)            IC50        > 10000 nM

Item under review: Cc1cc(C)cc(Oc2ccc([N+](=O)[O-])cc2S(=O)(=O)NCCN2CCCCC2)c1 [Example 4-2] . Reported IC50?
< 1000 nM

What IC50 value was documented for this compound, Cc1cc(C)cc(Oc2cc(C)c([N+](=O)[O-])cc2S(=O)(=O)N2CCNCC2)c1.Cl [Example 1-44] ?
1000 to 10000 nM

I would be grateful if you could share the reported IC50 for Cl.O=S(=O)(c1cc(F)ccc1Oc1cc(Cl)cc(Cl)c1)N1CCNCC1 [Example 1-51] .
< 1000 nM

// query IC50 value for entry Cl.O=[N+]([O-])c1ccc(Oc2cccc(F)c2)c(S(=O)(=O)N2CCNCC2)c1 [Example 1-15]
1000 to 10000 nM

Quick one: IC50 for Cc1cc(C)cc(Oc2ccc(C(=O)N3CCNCC3)cc2S(=O)(=O)N2CCNCC2)c1.Cl.Cl [Example 1-42] ?
> 10000 nM
